biological target: CDK4:CCND1 (Homo sapiens (Human), UniProt P11802); experiment: NanoBRET assay in MCF-7 cells, CDK4; type: cell-based; conditions: NanoBRET, transfected MCF-7 cells, 2 hours; n = 1 or average; read-out: CDK4 IC50
Sequence (P11802 whole entry): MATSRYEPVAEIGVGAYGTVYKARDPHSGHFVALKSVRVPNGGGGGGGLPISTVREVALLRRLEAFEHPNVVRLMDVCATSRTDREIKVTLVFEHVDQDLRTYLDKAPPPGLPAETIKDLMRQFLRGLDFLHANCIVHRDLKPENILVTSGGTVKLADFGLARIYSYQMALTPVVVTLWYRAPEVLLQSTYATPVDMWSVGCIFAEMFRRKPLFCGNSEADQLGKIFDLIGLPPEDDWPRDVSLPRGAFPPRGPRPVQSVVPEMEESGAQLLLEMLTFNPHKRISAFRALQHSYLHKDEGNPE
Sequence (P24385 whole entry partner): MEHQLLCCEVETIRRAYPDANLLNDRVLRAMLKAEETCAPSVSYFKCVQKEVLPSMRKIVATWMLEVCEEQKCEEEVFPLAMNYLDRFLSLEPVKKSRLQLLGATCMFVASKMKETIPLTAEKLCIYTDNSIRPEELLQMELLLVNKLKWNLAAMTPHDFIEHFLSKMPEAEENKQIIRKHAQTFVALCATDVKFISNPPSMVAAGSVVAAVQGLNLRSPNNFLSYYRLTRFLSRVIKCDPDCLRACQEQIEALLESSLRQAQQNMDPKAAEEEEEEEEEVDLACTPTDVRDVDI
pIC50: −log10 of the molar value.
metric: pIC50

CC(C)[C@H](CO)Nc1nc(N[C@@H]2CN(S(C)(=O)=O)C[C@H]2C)c2ncn(C(C)C)c2n1    < 4.53
CC[C@H](Nc1nc(N[C@H]2C[C@@H](C)N(S(C)(=O)=O)C2)c2ncn(C(C)C)c2n1)[C@@H](C)O    < 4.53
CC[C@H](Nc1nc(N[C@H]2CCN(S(=O)(=O)c3cnn(C)c3)C2)c2ncn(C(C)C)c2n1)[C@@H](C)O    < 4.53

----------
Experiment: Aqueous thermodynamic solubility, shake-flask
Type: physicochemical
Details: aqueous phosphate buffer, 25 °C, pH 7.4, aqueous buffer, thermodynamic from solid, phosphate buffer 0.1 M, pH 7.4, 24 hours
Procedure: The DMSO was evaporated and the dried compounds were equilibrated in glass vials in aqueous phosphate buffer (0.1 M, pH 7.4) for 24 hours at 25° C. under constant stirring. The portion with the dissolved compound was then separated from the remainder through a double centrifugation with a tip wash in between to ensure that no residues of the dried compound were interfering. The solutions were diluted with purified water before quantification using UPLC/MS/MS.
metric: solubility at 24 h (µM)

CC[C@H](Nc1nc(N[C@H]2CCN(S(=O)(=O)NC)C2)c2ncn(CF)c2n1)[C@@H](C)O [Example 54]    593
CC(C)[C@H](CO)Nc1nc(N[C@H]2C[C@@H](C)N(S(C)(=O)=O)C2)c2ncn(C(C)C)c2n1 [Example 34]    59.9
CC[C@H](Nc1nc(N[C@H]2CCN(S(=O)(=O)NCC(F)(F)F)C2)c2ncn(CC)c2n1)[C@@H](C)O [Example 4]    57
CCn1cnc2c(N[C@H]3CCN(S(=O)(=O)NC)C3)nc(-c3cccc4c3CC[C@H]4O)nc21 [Example 2]    55
CC(C)[C@H](CO)Nc1nc(N[C@H]2C[C@H](C)N(S(C)(=O)=O)C2)c2ncn(C(C)C)c2n1 [Example 35]    26.4
CC[C@H](CO)Nc1nc(N[C@H]2CCN(S(=O)(=O)NC)C2)c2ncn(CC)c2n1 [Example 47]    253
CCNS(=O)(=O)N1CC[C@H](Nc2nc(N[C@@H](CO)CC3CC3)nc3c2ncn3CC)C1 (relative stereo) [Example 58]    51.9
CCn1cnc2c(N[C@H]3CCN(S(=O)(=O)NC)C3)nc(-c3cccc4c3CC[C@]4(C)O)nc21 (relative stereo) [Example 3]    48
CCNS(=O)(=O)N1CC[C@H](Nc2nc(N[C@H](CC)C(C)=O)nc3c2ncn3CC)C1 [Example 12]    955

----------
Recorded IC50 for the following molecules
biological target: CDK4:CCND1 (Homo sapiens (Human)); assay: NanoBRET assay in MCF-7 cells, CDK4; format: cell-based; conditions: NanoBRET, transfected MCF-7 cells, 2 hours; n = 1 or average; read-out: CDK4 IC50
metric: IC50

CC[C@H](Nc1nc(N[C@H]2CCN(S(=O)(=O)NC[C@H]3COCCO3)C2)c2ncn(CC)c2n1)[C@@H](C)O [Example 23]    > 29.7 µM
CC[C@@H](CO)Nc1nc(N[C@H]2CCN(S(=O)(=O)NC)C2)c2ncn(CC)c2n1 [Example 48]    > 23.8 µM
CCNS(=O)(=O)N1CC[C@H](Nc2nc(N[C@@H](CC)[C@@H](C)O)nc3c2ncn3C)C1 [Example 53]    > 29.7 µM
